Documented Bas across a set of compounds
Species: Rattus norvegicus
Experiment: Open TG-GATES - Regimen: Daily Repeat
Assay type: toxicity, organism-based, Sprague-Dawley
Parameters: regimen Daily Repeat, gender Male, age 6 weeks
Conditions: in vivo, po, 0 mg/kg, […], tissue Blood, route gavage, dose level Control, time 7 day

compound | Bas
O=P1(N(CCCl)CCCl)NCCCO1 (stereo unspecified) [CYCLOPHOSPHAMIDE ANHYDROUS] | 0%
Cn1c(=O)c2c(ncn2C)n(C)c1=O | 0%
Cc1cccc(Nc2cc(Cl)nc(SCC(=O)O)n2)c1C | 0%
C=CCO | 0%
COc1ccc(O)c(C(C)(C)C)c1.COc1ccc(O)cc1C(C)(C)C [BUTYLATED HYDROXYANISOLE] | 0.3%
O=C1NC(=O)C(c2ccccc2)(c2ccccc2)N1 | 0%
O=C1CN(/N=C/c2ccc(-c3ccc([N+](=O)[O-])cc3)o2)C(O)=N1 | 0%
COc1ccc(Cl)cc1C(=O)NCCc1ccc(S(=O)(=O)NC(=O)NC2CCCCC2)cc1 [GLYBURIDE] | 0%
Cc1cnc(NC(=O)C2=C(O)c3ccccc3S(=O)(=O)N2C)s1 | 0.8%
CS(=O)(=O)Nc1ccc([N+](=O)[O-])cc1Oc1ccccc1 [NIMESULIDE] | 0%
Cn1cnc([N+](=O)[O-])c1Sc1ncnc2nc[nH]c12 | 0%

###

Species: Rattus norvegicus
Assay: Open TG-GATES - Regimen: Daily Repeat
Assay type: toxicity, organism-based, Sprague-Dawley
Design: regimen Daily Repeat, gender Male, age 6 weeks
Conditions: in vivo, po, 0 mg/kg, […], tissue Blood, route gavage, dose level Control, time 7 day

compound | result units | APTT
COc1ccc(Cl)cc1C(=O)NCCc1ccc(S(=O)(=O)NC(=O)NC2CCCCC2)cc1 [GLYBURIDE] | s | 18.2
COc1ccc(O)c(C(C)(C)C)c1.COc1ccc(O)cc1C(C)(C)C [BUTYLATED HYDROXYANISOLE] | s | 19
O=C1NC(=O)C(c2ccccc2)(c2ccccc2)N1 [PHENYTOIN] | s | 20.8
O=P1(N(CCCl)CCCl)NCCCO1 (stereo not given) [CYCLOPHOSPHAMIDE ANHYDROUS] | s | 21.7
Cn1c(=O)c2c(ncn2C)n(C)c1=O [CAFFEINE] | s | 22.5
Cc1cccc(Nc2cc(Cl)nc(SCC(=O)O)n2)c1C [PIRINIXIC ACID] | s | 16.6
CS(=O)(=O)Nc1ccc([N+](=O)[O-])cc1Oc1ccccc1 [NIMESULIDE] | s | 18.3
Cn1cnc([N+](=O)[O-])c1Sc1ncnc2nc[nH]c12 [AZATHIOPRINE] | s | 21.9
C=CCO [ALLYL ALCOHOL] | s | 20
O=C1CN(/N=C/c2ccc(-c3ccc([N+](=O)[O-])cc3)o2)C(O)=N1 [DANTROLENE] | s | 16.9

###

Species: Rattus norvegicus
Assay: Open TG-GATES - Regimen: Single
Assay type: toxicity, organism-based, Sprague-Dawley
Set-up: regimen Single, gender Male, age 6 weeks
Conditions: in vivo, po, 0 mg/kg, 9 h, tissue Plasma, route gavage, dose level Control
property: PL (mg/dL)

compound | result units | value reported
COc1ccc(O)c(C(C)(C)C)c1.COc1ccc(O)cc1C(C)(C)C [BUTYLATED HYDROXYANISOLE] | mg/dL | 128.2
CS(=O)(=O)Nc1ccc([N+](=O)[O-])cc1Oc1ccccc1 [NIMESULIDE] | mg/dL | 128.4
C=CCO | mg/dL | 148.4
CNCCC(Oc1ccc(C(F)(F)F)cc1)c1ccccc1.Cl (stereo not given) [FLUOXETINE HYDROCHLORIDE] | mg/dL | 139.8
S=C=Nc1cccc2ccccc12 [1-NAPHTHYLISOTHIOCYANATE] | mg/dL | 139
COc1ccc(Cl)cc1C(=O)NCCc1ccc(S(=O)(=O)NC(=O)NC2CCCCC2)cc1 [GLYBURIDE] | mg/dL | 137.4
O=C1CN(/N=C/c2ccc(-c3ccc([N+](=O)[O-])cc3)o2)C(O)=N1 | mg/dL | 127.2
Cc1cccc(Nc2cc(Cl)nc(SCC(=O)O)n2)c1C | mg/dL | 146
Cn1cnc([N+](=O)[O-])c1Sc1ncnc2nc[nH]c12 | mg/dL | 125.2
O=C1NC(=O)C(c2ccccc2)(c2ccccc2)N1 | mg/dL | 131.6

###

Documented Ca across a set of compounds
Organism: Rattus norvegicus
Assay: Open TG-GATES - Regimen: Daily Repeat
Format: toxicity, organism-based, Sprague-Dawley
Parameters: regimen Daily Repeat, gender Male, age 6 weeks
Details: in vivo, po, 0 mg/kg, […], tissue Plasma, route gavage, dose level Control, time 7 day

compound | Ca, mg/dL
Cn1c(=O)c2c(ncn2C)n(C)c1=O | 10.5
COc1ccc(O)c(C(C)(C)C)c1.COc1ccc(O)cc1C(C)(C)C [BUTYLATED HYDROXYANISOLE] | 11
O=P1(N(CCCl)CCCl)NCCCO1 (centres undefined) [CYCLOPHOSPHAMIDE ANHYDROUS] | 10.7
Cn1cnc([N+](=O)[O-])c1Sc1ncnc2nc[nH]c12 | 10.8
COc1ccc(Cl)cc1C(=O)NCCc1ccc(S(=O)(=O)NC(=O)NC2CCCCC2)cc1 [GLYBURIDE] | 10.8
CS(=O)(=O)Nc1ccc([N+](=O)[O-])cc1Oc1ccccc1 [NIMESULIDE] | 10.5
O=C1CN(/N=C/c2ccc(-c3ccc([N+](=O)[O-])cc3)o2)C(O)=N1 | 10.7
C=CCO | 10.9
Cc1cccc(Nc2cc(Cl)nc(SCC(=O)O)n2)c1C | 11

###

Documented MCHC across a set of compounds
Organism: Rattus norvegicus
Assay: Open TG-GATES - Regimen: Single
Assay type: toxicity, organism-based, Sprague-Dawley
Parameters: regimen Single, gender Male, age 6 weeks
Details: in vivo, po, 0 mg/kg, 9 h, tissue Blood, route gavage, dose level Control
property: MCHC (%)

compound | value reported
COc1ccc(O)c(C(C)(C)C)c1.COc1ccc(O)cc1C(C)(C)C [BUTYLATED HYDROXYANISOLE] | 34.2
O=C1CN(/N=C/c2ccc(-c3ccc([N+](=O)[O-])cc3)o2)C(O)=N1 | 33.1
COc1ccc(Cl)cc1C(=O)NCCc1ccc(S(=O)(=O)NC(=O)NC2CCCCC2)cc1 [GLYBURIDE] | 32.7
S=C=Nc1cccc2ccccc12 [1-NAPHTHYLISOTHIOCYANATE] | 36.1

###

Species on record: Rattus norvegicus
Experiment: Open TG-GATES - Regimen: Daily Repeat
Assay type: toxicity, organism-based, Sprague-Dawley
Parameters: regimen Daily Repeat, gender Male, age 6 weeks
Conditions: in vivo, po, 0 mg/kg, 72 h, tissue Blood, route gavage, dose level Control, time 3 day

compound | PT (s)
COc1ccc(O)c(C(C)(C)C)c1.COc1ccc(O)cc1C(C)(C)C [BUTYLATED HYDROXYANISOLE] | 11.5
Cc1cnc(NC(=O)C2=C(O)c3ccccc3S(=O)(=O)N2C)s1 [MELOXICAM] | 11.9
O=P1(N(CCCl)CCCl)NCCCO1 (stereo not given) [CYCLOPHOSPHAMIDE ANHYDROUS] | 16.8
O=C1NC(=O)C(c2ccccc2)(c2ccccc2)N1 [PHENYTOIN] | 16
C=CCO [ALLYL ALCOHOL] | 11.7

###

Species: Rattus norvegicus
Assay: Open TG-GATES - Regimen: Single
Format: toxicity, organism-based, Sprague-Dawley
Parameters: regimen Single, gender Male, age 6 weeks
Settings: in vivo, po, 0 mg/kg, 9 h, tissue Blood, route gavage, dose level Control

molecule | Ret (%)
O=C1CN(/N=C/c2ccc(-c3ccc([N+](=O)[O-])cc3)o2)C(O)=N1 | 10.2
CNCCC(Oc1ccc(C(F)(F)F)cc1)c1ccccc1.Cl (stereo not given) [FLUOXETINE HYDROCHLORIDE] | 8
Cc1cccc(Nc2cc(Cl)nc(SCC(=O)O)n2)c1C | 7.6
Cc1cnc(NC(=O)C2=C(O)c3ccccc3S(=O)(=O)N2C)s1 | 7.2
COc1ccc(O)c(C(C)(C)C)c1.COc1ccc(O)cc1C(C)(C)C [BUTYLATED HYDROXYANISOLE] | 8.4

###

Species: Rattus norvegicus
Test: Open TG-GATES - Regimen: Single
Type: toxicity, organism-based, Sprague-Dawley
Parameters: regimen Single, gender Male, age 6 weeks
Settings: in vivo, po, 0 mg/kg, 3 h, tissue Blood, route gavage, dose level Control

compound | Neu (%)
Cc1cccc(Nc2cc(Cl)nc(SCC(=O)O)n2)c1C | 18
COc1ccc(Cl)cc1C(=O)NCCc1ccc(S(=O)(=O)NC(=O)NC2CCCCC2)cc1 [GLYBURIDE] | 24.4
CS(=O)(=O)Nc1ccc([N+](=O)[O-])cc1Oc1ccccc1 [NIMESULIDE] | 15.6
COc1ccc(O)c(C(C)(C)C)c1.COc1ccc(O)cc1C(C)(C)C [BUTYLATED HYDROXYANISOLE] | 21.1
Cc1cnc(NC(=O)C2=C(O)c3ccccc3S(=O)(=O)N2C)s1 | 17.6
Cn1cnc([N+](=O)[O-])c1Sc1ncnc2nc[nH]c12 | 17.2
C=CCO | 21.8
S=C=Nc1cccc2ccccc12 [1-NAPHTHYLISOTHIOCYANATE] | 17.6
